- TESTED_SYSTEM: Amine oxidase [flavin-containing] B (Homo sapiens)
- MEASUREMENT_NOTES: Inhibition of MAO-B (unknown origin)
METRIC: IC50 (µM)
Value expressed in µM; do not type the unit.

Give recorded IC50. C#CCNc1ccccc1-c1cc(-c2ccc(OCCN3CCCCC3)cc2)nc(N)n1
0.37

----------
Each entry below carries its recorded inhibition.
- TESTED_SYSTEM: Cholinesterase (Equus caballus)
- MEASUREMENT_NOTES: Inhibition of equine BuChE at 20 uM using butyryl-thiocholine iodide as substrate incubated for 30 min by DTNB reagent based Ellman's method relative to control
Value expressed in %; do not type the unit.

As a guide, the following entries are already answered.
{"columns": ["SMILES_ENTRY", "TESTED_SYSTEM", "inhibition [%]"],
 "data": [
  ["C#CCOc1cccc(-c2cc(/C=C/c3ccccc3)nc(-c3ccccc3)n2)c1", "Cholinesterase (Equus caballus)", 1.5],
  ["C#CCOc1ccc(-c2cc(/C=C/c3ccccc3)nc(-c3ccccc3)n2)cc1", "Cholinesterase (Equus caballus)", 3.6],
  ["C#CCOc1cccc(-c2cc(/C(C)=C\\c3ccccc3)nc(N)n2)c1", "Cholinesterase (Equus caballus)", 7.03]
]}

Give recorded inhibition. C#CCOc1ccc(-c2cc(/C=C/c3ccccc3)nc(C)n2)cc1
8.16

Give recorded inhibition. C#CCOc1cccc(-c2cc(/C=C/c3ccccc3)ncn2)c1
6.43

Give recorded inhibition. C#CCOc1ccccc1-c1cc(/C=C/c2ccccc2)nc(-c2ccccc2)n1
3.6

----------
- TESTED_SYSTEM: Amine oxidase [flavin-containing] A (Homo sapiens, UniProt P21397)
- Sequence (P21397 whole entry): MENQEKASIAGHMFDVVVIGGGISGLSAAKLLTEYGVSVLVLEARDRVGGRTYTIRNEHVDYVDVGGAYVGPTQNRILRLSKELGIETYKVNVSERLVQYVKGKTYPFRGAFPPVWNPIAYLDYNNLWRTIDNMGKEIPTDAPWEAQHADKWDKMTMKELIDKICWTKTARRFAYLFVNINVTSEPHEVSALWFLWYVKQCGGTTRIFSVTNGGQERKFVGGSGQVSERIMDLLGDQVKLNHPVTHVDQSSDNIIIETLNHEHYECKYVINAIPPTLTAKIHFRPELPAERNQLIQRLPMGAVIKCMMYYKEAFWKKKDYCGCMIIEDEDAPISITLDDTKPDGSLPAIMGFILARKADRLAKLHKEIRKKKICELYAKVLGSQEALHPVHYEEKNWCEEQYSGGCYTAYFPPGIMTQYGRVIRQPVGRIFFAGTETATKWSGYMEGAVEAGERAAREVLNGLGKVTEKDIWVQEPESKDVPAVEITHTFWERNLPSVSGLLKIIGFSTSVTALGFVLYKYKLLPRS
- MEASUREMENT_NOTES: Inhibition of human MAO-A at 10 uM using p-tyramine as substrate incubated for 30 mins by Amplex Red reagent based fluorescence analysis relative to control
- PROTOCOL_CONDITIONS: 0.5 h
Each entry below carries its recorded inhibition at 10 µM.
Value expressed in %; do not type the unit.

{"columns": ["SMILES_ENTRY", "inhibition at 10 µM / %"],
 "data": [
  ["C#CCOc1ccc(-c2cc(/C=C/c3ccccc3)nc(N)n2)cc1", 8.61],
  ["C#CCOc1ccc(-c2cc(/C(C)=C/c3ccccc3)nc(C)n2)cc1", 10.9],
  ["C#CCOc1cccc(-c2cc(/C=C/c3ccccc3)nc(-c3ccccc3)n2)c1", 0.4]
]}

Find inhibition at 10 µM for C#CCOc1cccc(-c2cc(/C=C/c3ccccc3)nc(C)n2)c1 on Amine oxidase [flavin-containing] A (Homo sapiens, UniProt P21397) and write it down.
15.5

Find inhibition at 10 µM for C#CCOc1ccccc1-c1cc(/C=C/c2ccccc2)nc(-c2ccccc2)n1 on Amine oxidase [flavin-containing] A (Homo sapiens, UniProt P21397) and write it down.
9.57

Find inhibition at 10 µM for C#CCOc1cccc(-c2cc(/C=C/c3ccccc3)ncn2)c1 on Amine oxidase [flavin-containing] A (Homo sapiens, UniProt P21397) and write it down.
13.9

Find inhibition at 10 µM for C#CCOc1ccc(-c2cc(/C=C/c3ccccc3)nc(N)n2)cc1C on Amine oxidase [flavin-containing] A (Homo sapiens, UniProt P21397) and write it down.
13.1

Find inhibition at 10 µM for C#CCOc1cccc(-c2cc(/C(C)=C/c3ccccc3)ncn2)c1 on Amine oxidase [flavin-containing] A (Homo sapiens, UniProt P21397) and write it down.
0.87

Find inhibition at 10 µM for C#CCOc1ccc(-c2cc(/C=C/c3ccccc3)nc(C)n2)cc1C on Amine oxidase [flavin-containing] A (Homo sapiens, UniProt P21397) and write it down.
0.96

Find inhibition at 10 µM for C#CCOc1ccc(-c2cc(/C(C)=C/c3ccccc3)nc(N)n2)cc1 on Amine oxidase [flavin-containing] A (Homo sapiens, UniProt P21397) and write it down.
8.66

Find inhibition at 10 µM for C#CCOc1ccc(-c2cc(/C=C/c3ccccc3)nc(-c3ccccc3)n2)cc1 on Amine oxidase [flavin-containing] A (Homo sapiens, UniProt P21397) and write it down.
20.9

Find inhibition at 10 µM for C#CCOc1ccc(-c2cc(/C=C/c3ccccc3)nc(C)n2)cc1 on Amine oxidase [flavin-containing] A (Homo sapiens, UniProt P21397) and write it down.
10

Find inhibition at 10 µM for C#CCOc1cccc(-c2cc(/C(C)=C\c3ccccc3)nc(N)n2)c1 on Amine oxidase [flavin-containing] A (Homo sapiens, UniProt P21397) and write it down.
12

----------
- TESTED_SYSTEM: Amine oxidase [flavin-containing] B (Homo sapiens, UniProt P27338)
- Sequence (P27338 whole entry): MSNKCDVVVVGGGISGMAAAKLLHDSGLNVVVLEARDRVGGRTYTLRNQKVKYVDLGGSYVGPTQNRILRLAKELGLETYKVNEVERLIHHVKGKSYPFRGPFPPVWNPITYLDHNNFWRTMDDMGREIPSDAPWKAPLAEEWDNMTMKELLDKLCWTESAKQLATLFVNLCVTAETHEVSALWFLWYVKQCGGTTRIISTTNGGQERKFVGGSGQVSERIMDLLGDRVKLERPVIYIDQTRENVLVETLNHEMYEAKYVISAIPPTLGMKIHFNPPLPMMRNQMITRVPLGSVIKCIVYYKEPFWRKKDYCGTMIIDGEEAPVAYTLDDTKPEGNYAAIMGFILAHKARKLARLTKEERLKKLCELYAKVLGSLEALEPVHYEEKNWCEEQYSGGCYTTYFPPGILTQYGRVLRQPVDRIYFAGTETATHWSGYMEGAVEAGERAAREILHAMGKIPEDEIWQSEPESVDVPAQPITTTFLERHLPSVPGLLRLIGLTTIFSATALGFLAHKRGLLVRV
- MEASUREMENT_NOTES: Inhibition of human MAO-B at 10 uM using p-tyramine as substrate incubated for 30 mins by Amplex Red reagent based fluorescence analysis relative to control
- PROTOCOL_CONDITIONS: 0.5 h
I would appreciate it if you labelled entries Met when inhibition at 10 µM is 20% or higher, otherwise Not met.

Here's what some known entries look like.
{"columns": ["SMILES_ENTRY", "CATEGORY_LABEL"],
 "data": [
  ["C#CCOc1cccc(-c2cc(/C(C)=C/c3ccccc3)ncn2)c1", "Met"],
  ["C#CCOc1ccc(-c2cc(/C=C/c3ccccc3)nc(-c3ccccc3)n2)cc1", "Not met"],
  ["C#CCOc1ccccc1-c1cc(/C=C/c2ccccc2)nc(-c2ccccc2)n1", "Not met"],
  ["C#CCOc1ccc(-c2cc(/C(C)=C\\c3ccccc3)ncn2)cc1", "Met"]
]}

Answer whether inhibition at 10 µM of C#CCOc1ccc(-c2cc(/C=C/c3ccccc3)nc(C)n2)cc1C is greater than or equal to 20%.
Not met

Answer whether inhibition at 10 µM of C#CCOc1cccc(-c2cc(/C=C/c3ccccc3)nc(-c3ccccc3)n2)c1 is greater than or equal to 20%.
Not met

Answer whether inhibition at 10 µM of C#CCOc1ccc(-c2cc(/C(C)=C/c3ccccc3)nc(C)n2)cc1 is greater than or equal to 20%.
Not met

Answer whether inhibition at 10 µM of C#CCOc1ccc(-c2cc(/C(C)=C/c3ccccc3)nc(N)n2)cc1 is greater than or equal to 20%.
Not met

Answer whether inhibition at 10 µM of C#CCOc1cccc(-c2cc(/C(C)=C\c3ccccc3)nc(N)n2)c1 is greater than or equal to 20%.
Met

----------
Each entry below carries its recorded IC50.
- TESTED_SYSTEM: UniProtKB O42275
- MEASUREMENT_NOTES: Inhibition of electric eel AChE using acetylthiocholine iodide as substrate incubated for 30 min by DTNB reagent based Ellman's method
Value expressed in µM; do not type the unit.

As a guide, the following entries are already answered.
{"columns": ["SMILES_ENTRY", "IC50 (µM)"],
 "data": [
  ["C#CCOc1ccc(-c2cc(/C(C)=C\\c3ccccc3)ncn2)cc1", 9.29],
  ["C#CCOc1cccc(-c2cc(/C=C/c3ccccc3)ncn2)c1", 9.02],
  ["C#CCOc1ccc(-c2cc(/C=C\\c3ccccc3)ncn2)cc1", 7.49]
]}

Give recorded IC50. C#CCOc1cccc(-c2cc(/C(C)=C\c3ccccc3)nc(N)n2)c1
8.48

----------
- TESTED_SYSTEM: Acetylcholinesterase (Electrophorus electricus) (UniProt O42275)
- Sequence (O42275 24-633 limits assumed): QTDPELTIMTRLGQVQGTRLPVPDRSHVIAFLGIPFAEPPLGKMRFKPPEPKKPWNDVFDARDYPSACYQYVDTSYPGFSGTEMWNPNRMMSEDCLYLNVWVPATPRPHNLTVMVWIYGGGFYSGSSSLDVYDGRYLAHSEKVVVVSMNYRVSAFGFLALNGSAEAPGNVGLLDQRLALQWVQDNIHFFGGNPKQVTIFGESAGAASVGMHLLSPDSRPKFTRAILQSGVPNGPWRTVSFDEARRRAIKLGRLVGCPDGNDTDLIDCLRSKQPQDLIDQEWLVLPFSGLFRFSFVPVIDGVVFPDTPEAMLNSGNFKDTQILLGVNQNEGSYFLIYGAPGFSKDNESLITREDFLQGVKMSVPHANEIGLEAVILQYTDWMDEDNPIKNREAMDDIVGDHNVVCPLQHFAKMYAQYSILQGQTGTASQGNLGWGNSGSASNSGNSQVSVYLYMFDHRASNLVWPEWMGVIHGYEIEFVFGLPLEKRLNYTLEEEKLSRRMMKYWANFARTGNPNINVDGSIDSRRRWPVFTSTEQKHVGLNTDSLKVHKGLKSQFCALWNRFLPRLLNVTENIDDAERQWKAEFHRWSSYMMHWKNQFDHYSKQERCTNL
- MEASUREMENT_NOTES: Inhibition of electric eel AChE at 20 uM using acetylthiocholine iodide as substrate incubated for 30 min by DTNB reagent based Ellman's method relative to control
METRIC: inhibition (%)
Value expressed in %; do not type the unit.

{"columns": ["SMILES_ENTRY", "inhibition, %"],
 "data": [
  ["C#CCOc1ccc(-c2cc(/C=C/c3ccccc3)nc(C)n2)cc1", 62.8],
  ["C#CCOc1ccc(-c2cc(/C(C)=C\\c3ccccc3)ncn2)cc1", 69],
  ["C#CCOc1ccc(-c2cc(/C(C)=C/c3ccccc3)nc(C)n2)cc1", 60.5],
  ["C#CCOc1ccc(-c2cc(/C=C/c3ccccc3)nc(C)n2)cc1C", 67]
]}

Give recorded inhibition. C#CCOc1ccc(-c2cc(/C=C/c3ccccc3)nc(-c3ccccc3)n2)cc1
70.2

Give recorded inhibition. C#CCOc1ccc(-c2cc(/C=C\c3ccccc3)ncn2)cc1
63.4

Give recorded inhibition. C#CCOc1cccc(-c2cc(/C=C/c3ccccc3)nc(-c3ccccc3)n2)c1
69.6

Give recorded inhibition. C#CCOc1ccc(-c2cc(/C=C/c3ccccc3)nc(N)n2)cc1
68.5

Give recorded inhibition. C#CCOc1ccccc1-c1cc(/C=C/c2ccccc2)nc(-c2ccccc2)n1
64.2

----------
- TESTED_SYSTEM: Amine oxidase [flavin-containing] B (Homo sapiens, UniProt P27338)
- MEASUREMENT_NOTES: Inhibition of human MAO-B using p-tyramine as substrate preincubated for 15 mins followed by substrate addition and measured after 30 mins by Amplex Red reagent based fluorescence analysis
METRIC: IC50 (nM)
Value expressed in nM; do not type the unit.

Find IC50 for C#CCOc1ccccc1-c1cc(-c2ccc(Cl)cc2)nc(-c2ccccc2)n1 on Amine oxidase [flavin-containing] B (Homo sapiens, UniProt P27338) and write it down.
480
